For each entry below, report its EC50 value.
Molecular target: T1, human PD-1 extracellular domain fused with human Fc tag (hPD-1-hFc) (human)
T1 construct: also called human PD-1-hFc
T1 sequence (chain, as listed by the source limits assumed): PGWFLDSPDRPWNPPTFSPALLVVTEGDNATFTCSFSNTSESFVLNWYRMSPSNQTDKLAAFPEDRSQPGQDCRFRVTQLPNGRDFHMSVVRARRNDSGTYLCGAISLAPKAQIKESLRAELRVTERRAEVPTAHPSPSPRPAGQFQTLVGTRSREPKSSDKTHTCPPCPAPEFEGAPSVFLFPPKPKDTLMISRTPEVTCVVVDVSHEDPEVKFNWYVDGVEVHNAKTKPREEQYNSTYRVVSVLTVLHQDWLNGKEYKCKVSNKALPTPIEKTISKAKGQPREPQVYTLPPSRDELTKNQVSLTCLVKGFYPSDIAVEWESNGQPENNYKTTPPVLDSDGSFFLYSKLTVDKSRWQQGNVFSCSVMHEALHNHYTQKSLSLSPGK
Assay: ELISA binding (summary table)
Numeric only. Scale: µg/mL

Q: Using the record for 10D1 murine anti-PD-1 antibody (antibody, V domains shown, Purified hybridoma antibody; also called 10D1-mIgG1) VH: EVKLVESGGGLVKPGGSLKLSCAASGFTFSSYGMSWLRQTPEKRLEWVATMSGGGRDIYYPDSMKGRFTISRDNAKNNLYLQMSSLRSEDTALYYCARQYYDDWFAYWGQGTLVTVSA VL: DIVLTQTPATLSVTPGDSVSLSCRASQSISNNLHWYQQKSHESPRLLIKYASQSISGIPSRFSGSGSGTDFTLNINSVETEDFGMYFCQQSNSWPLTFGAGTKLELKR , report its EC50.
A: 0.0172

Q: // query EC50 value for entry 15H5 murine anti-PD-1 antibody (antibody, V domains shown, Purified hybridoma antibody; also called 15H5-mIgG1) VH: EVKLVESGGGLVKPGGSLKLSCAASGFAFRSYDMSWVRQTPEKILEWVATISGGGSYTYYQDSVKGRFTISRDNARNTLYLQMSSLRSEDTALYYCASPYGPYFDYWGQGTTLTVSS VL: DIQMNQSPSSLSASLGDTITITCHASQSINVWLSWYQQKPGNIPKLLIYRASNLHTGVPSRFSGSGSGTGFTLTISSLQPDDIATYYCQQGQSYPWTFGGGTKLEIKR
A: 0.0134
